Please consider the recorded pIC50 for Somatostatin receptor type 1 (Homo sapiens, UniProt P30872) in what follows.
Give bare numbers, as −log10 of the molar value.

>>> value_measured("C[C@@H](O)[C@@H]1NC(=O)[C@H](CCCCN)NC(=O)[C@@H](Cc2c[nH]c3ccccc23)NC(=O)[C@H](Cc2ccccc2)NC(=O)[C@H](Cc2ccccc2)NC(=O)C(N)CSSC[C@@H](C(=O)O)NC(=O)[C@H](Cc2ccccc2)NC1=O (single isomer, unassigned)")
7.85

Switching to the query record.
**Q:** Name the recorded pIC50 for CC(=O)N[C@@H]1CSSC[C@@H](C(=O)O)NC(=O)[C@H](Cc2ccccc2)NC(=O)[C@H]([C@@H](C)O)NC(=O)[C@H](CCCCN)NC(=O)[C@@H](Cc2c[nH]c3ccccc23)NC(=O)[C@H](Cc2ccccc2)NC(=O)[C@H](Cc2ccccc2)NC1=O .
**A:** 7.80
